- Tested on: Blumeria graminis f. sp. hordei
- Protocol details: Test Example D: Powdery mildew on barley
- Format: in vivo
- Assay context: Table 7, Test D, read-out: control value, Test D (powdery mildew on barley)
Measured pest or weed control at 250 µg/mL by item
Endpoint name: pest or weed control at 250 µg/mL

{"Compound": "C=CCOc1cc(F)c(-c2c(-n3cc(Cl)cn3)cc(Cl)c(=O)n2CC)c(F)c1 [compound 202]", "Endpoint name": "pest or weed control at 250 µg/mL", "Experimental result": "> 50%"}
{"Compound": "CCn1c(-c2c(F)cc(F)cc2F)c(-n2cc(Cl)cn2)cc(C=O)c1=O [compound 265]", "Endpoint name": "pest or weed control at 250 µg/mL", "Experimental result": "> 50%"}
{"Compound": "CCn1c(-c2c(F)cc(OCCOC)cc2F)c(-n2cc(Cl)cn2)cc(Cl)c1=O [compound 204]", "Endpoint name": "pest or weed control at 250 µg/mL", "Experimental result": "< 50%"}
{"Compound": "CCn1c(-c2ccc(F)cc2F)c(-n2cc(C)cn2)cc(Br)c1=O [compound 226]", "Endpoint name": "pest or weed control at 250 µg/mL", "Experimental result": "> 50%"}
{"Compound": "CCn1c(-c2c(F)cc(O)cc2F)c(-n2cc(Cl)cn2)cc(Cl)c1=O [compound 184]", "Endpoint name": "pest or weed control at 250 µg/mL", "Experimental result": "< 50%"}
{"Compound": "CCn1c(-c2c(F)cc(F)cc2F)c(-n2cc(Cl)cn2)cc(C)c1=O [compound 206]", "Endpoint name": "pest or weed control at 250 µg/mL", "Experimental result": "> 50%"}
{"Compound": "CCn1c(-c2c(F)cc(F)cc2F)c(-n2cc(Cl)cn2)cc(OC)c1=O [compound 225]", "Endpoint name": "pest or weed control at 250 µg/mL", "Experimental result": "> 50%"}
{"Compound": "CCn1c(-c2c(F)cc(F)cc2F)c(-n2cc(Cl)cn2)cc(C(F)F)c1=O [compound 266]", "Endpoint name": "pest or weed control at 250 µg/mL", "Experimental result": "> 50%"}

----------
- System: Magnaporthe grisea
- Protocol details: whole plant or invertebrate
- Assay type: in vivo
- Assay context: Pyricularia oryzae, in Oryza sativa, read-out: Test A control value
Quick reference: pest or weed control at 250 µg/mL of the listed items.
Endpoint name: pest or weed control at 250 µg/mL

{"Smiles text": "CCn1c(-c2c(F)cc(OC)cc2F)c(-c2c(Br)cnn2C)cc(Cl)c1=O", "Measured on": "Magnaporthe grisea", "Endpoint name": "pest or weed control at 250 µg/mL", "Experimental result": "> 50%"}
{"Smiles text": "CCn1c(-c2c(F)cccc2F)c(-c2ccc(Cl)s2)ccc1=O", "Measured on": "Magnaporthe grisea", "Endpoint name": "pest or weed control at 250 µg/mL", "Experimental result": "> 50%"}
{"Smiles text": "CCn1c(-c2c(F)cc(F)cc2F)c(-c2c(Br)cnn2C)cc(Cl)c1=O", "Measured on": "Magnaporthe grisea", "Endpoint name": "pest or weed control at 250 µg/mL", "Experimental result": "> 50%"}
{"Smiles text": "CCn1c(-c2c(F)cc(F)cc2F)c(-c2cnco2)cc(Cl)c1=O", "Measured on": "Magnaporthe grisea", "Endpoint name": "pest or weed control at 250 µg/mL", "Experimental result": "> 50%"}
{"Smiles text": "CCn1c(-c2c(F)cc(F)cc2F)c(-n2ncnc2Br)cc(Cl)c1=O", "Measured on": "Magnaporthe grisea", "Endpoint name": "pest or weed control at 250 µg/mL", "Experimental result": "> 50%"}
{"Smiles text": "CCn1c(-c2c(F)cc(OC)cc2F)c(-n2cc(Cl)cn2)cc(Cl)c1=O", "Measured on": "Magnaporthe grisea", "Endpoint name": "pest or weed control at 250 µg/mL", "Experimental result": "> 50%"}
{"Smiles text": "CCn1c(-c2c(F)cccc2F)c(-c2ocnc2C)cc(Cl)c1=O", "Measured on": "Magnaporthe grisea", "Endpoint name": "pest or weed control at 250 µg/mL", "Experimental result": "> 50%"}
{"Smiles text": "CCn1c(-c2c(F)cc(F)cc2F)c(-n2cc(Cl)cn2)ccc1=O", "Measured on": "Magnaporthe grisea", "Endpoint name": "pest or weed control at 250 µg/mL", "Experimental result": "< 50%"}
{"Smiles text": "CCN1C(=O)CCC(c2cccs2)=C1c1c(F)cccc1F", "Measured on": "Magnaporthe grisea", "Endpoint name": "pest or weed control at 250 µg/mL", "Experimental result": "> 50%"}
{"Smiles text": "CCn1c(-c2c(F)cc(F)cc2F)c(-n2cccn2)ccc1=O", "Measured on": "Magnaporthe grisea", "Endpoint name": "pest or weed control at 250 µg/mL", "Experimental result": "> 50%"}
{"Smiles text": "CCn1c(-c2c(F)cc(F)cc2F)c(-c2ocnc2Cl)cc(Cl)c1=O", "Measured on": "Magnaporthe grisea", "Endpoint name": "pest or weed control at 250 µg/mL", "Experimental result": "> 50%"}
{"Smiles text": "CCn1c(-c2c(F)cccc2F)c(-c2cccnc2Cl)cc(Cl)c1=O", "Measured on": "Magnaporthe grisea", "Endpoint name": "pest or weed control at 250 µg/mL", "Experimental result": "> 50%"}
{"Smiles text": "CCn1c(-c2c(F)cccc2F)c(-c2c[nH]cc2C#N)cc(Cl)c1=O", "Measured on": "Magnaporthe grisea", "Endpoint name": "pest or weed control at 250 µg/mL", "Experimental result": "< 50%"}
